Target: panel of 442 kinases (Homo sapiens)
Construct: purchased Ambit Biosciences (scanMAXX KINOMEscan)
Experiment: biochemical
Type: binding
Conditions: kinase LIMK2; 1 µM; read-out: % of control at 1 µM
Measured remaining activity at 1 µM, listed per entry.

{"columns": ["MOLECULAR_STRING", "remaining activity at 1 µM [%]"],
 "data": [
  ["Cn1c(=O)n(-c2ccc(C(C)(C)C#N)cc2)c2c3cc(-c4cnc5ccccc5c4)ccc3ncc21", 91],
  ["Nc1cc(C(F)(F)F)c(-c2cc(N3CCOCC3)nc(N3CCOCC3)n2)cn1", 100],
  ["FC(F)c1nc2ccccc2n1-c1nc(N2CCOCC2)nc(N2CCOCC2)n1", 100],
  ["COc1ncc(-c2ccc3nccc(-c4ccnnc4)c3c2)cc1NS(=O)(=O)c1ccc(F)cc1F", 89]
]}

----------
Biological target: panel of 442 kinases (Homo sapiens)
Construct: purchased Ambit Biosciences (scanMAXX KINOMEscan)
Test: biochemical
Type: binding
Details: kinase ROCK1; 1 µM; read-out: ROCK1 (% of control at 1 µM)

{"columns": ["MOLECULAR_STRING", "remaining activity at 1 µM / %"],
 "data": [
  ["FC(F)c1nc2ccccc2n1-c1nc(N2CCOCC2)nc(N2CCOCC2)n1", 75],
  ["Cn1c(=O)n(-c2ccc(C(C)(C)C#N)cc2)c2c3cc(-c4cnc5ccccc5c4)ccc3ncc21", 52],
  ["COc1ncc(-c2ccc3nccc(-c4ccnnc4)c3c2)cc1NS(=O)(=O)c1ccc(F)cc1F", 88],
  ["Nc1cc(C(F)(F)F)c(-c2cc(N3CCOCC3)nc(N3CCOCC3)n2)cn1", 86]
]}

----------
Biological target: panel of 442 kinases (Homo sapiens, UniProt P36507)
Construct: purchased Ambit Biosciences (scanMAXX KINOMEscan)
Sequence (P36507 whole entry): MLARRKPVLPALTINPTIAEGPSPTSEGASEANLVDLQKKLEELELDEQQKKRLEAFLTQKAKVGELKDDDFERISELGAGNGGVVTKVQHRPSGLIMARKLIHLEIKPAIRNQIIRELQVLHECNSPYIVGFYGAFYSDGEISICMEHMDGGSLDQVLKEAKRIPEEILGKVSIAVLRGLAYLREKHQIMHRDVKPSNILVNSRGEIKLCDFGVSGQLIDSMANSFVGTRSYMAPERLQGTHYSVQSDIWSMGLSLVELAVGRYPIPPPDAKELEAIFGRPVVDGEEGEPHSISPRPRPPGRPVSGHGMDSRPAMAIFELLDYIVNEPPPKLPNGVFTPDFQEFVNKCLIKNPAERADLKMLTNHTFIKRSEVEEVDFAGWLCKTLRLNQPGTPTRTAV
Assay: biochemical
Assay type: binding
Conditions: kinase MEK2; 1 µM; read-out: % of control at 1 µM

{"columns": ["COMPOUND", "remaining activity at 1 µM (%)"],
 "data": [
  ["FC(F)c1nc2ccccc2n1-c1nc(N2CCOCC2)nc(N2CCOCC2)n1 [ZSTK474]", 97],
  ["Cn1c(=O)n(-c2ccc(C(C)(C)C#N)cc2)c2c3cc(-c4cnc5ccccc5c4)ccc3ncc21 [Dactolisib]", 73],
  ["Nc1cc(C(F)(F)F)c(-c2cc(N3CCOCC3)nc(N3CCOCC3)n2)cn1 [Buparlisib]", 100],
  ["COc1ncc(-c2ccc3nccc(-c4ccnnc4)c3c2)cc1NS(=O)(=O)c1ccc(F)cc1F [Omipalisib]", 99]
]}

----------
Assay: Rat dose proportionality study (oral)
Conditions: male, Sprague-Dawley, plasma, 30 mg/kg

{"columns": ["COMPOUND", "READING_UNIT", "half-life"],
 "data": [
  ["COc1cccc2c1nc(C(F)F)n2-c1nc(N2CCOCC2)nc(N2CCN(S(=O)(=O)CCN(C)C)CC2)n1 [SN32976]", "h", 4.62]
]}

----------
Molecular target: panel of 442 kinases (Homo sapiens, UniProt Q8TBX8)
Construct: purchased Ambit Biosciences (scanMAXX KINOMEscan)
Sequence (Q8TBX8 whole entry): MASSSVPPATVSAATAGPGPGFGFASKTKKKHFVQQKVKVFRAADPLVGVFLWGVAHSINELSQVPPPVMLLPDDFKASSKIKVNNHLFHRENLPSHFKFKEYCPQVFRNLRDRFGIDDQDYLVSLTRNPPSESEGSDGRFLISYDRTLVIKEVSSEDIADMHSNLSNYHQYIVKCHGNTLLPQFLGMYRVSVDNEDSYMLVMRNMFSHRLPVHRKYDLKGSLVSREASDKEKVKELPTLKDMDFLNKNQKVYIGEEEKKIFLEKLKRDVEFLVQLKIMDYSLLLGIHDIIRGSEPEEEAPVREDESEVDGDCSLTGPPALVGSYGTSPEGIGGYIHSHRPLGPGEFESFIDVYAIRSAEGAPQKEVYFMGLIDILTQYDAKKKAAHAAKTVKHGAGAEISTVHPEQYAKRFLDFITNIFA
Test: biochemical
Format: binding
Conditions: kinase PIP5K2C; 1 µM; read-out: % of control at 1 µM
Collected remaining activity at 1 µM values appear next to each entry.

{"columns": ["MOLECULAR_STRING", "remaining activity at 1 µM (%)"],
 "data": [
  ["Nc1cc(C(F)(F)F)c(-c2cc(N3CCOCC3)nc(N3CCOCC3)n2)cn1", 71],
  ["FC(F)c1nc2ccccc2n1-c1nc(N2CCOCC2)nc(N2CCOCC2)n1", 100],
  ["Cn1c(=O)n(-c2ccc(C(C)(C)C#N)cc2)c2c3cc(-c4cnc5ccccc5c4)ccc3ncc21", 89],
  ["COc1ncc(-c2ccc3nccc(-c4ccnnc4)c3c2)cc1NS(=O)(=O)c1ccc(F)cc1F", 56]
]}
